# Test system: RPMI-8226 leukemia
# Assay method text: NCI tumour cell line growth inhibition, 48 h
In this section we review reported TGI values for a set of compounds.

Cn1cc2c(n1)c(N/N=C/c1ccccc1)nn1nnnc21 = > 100 µM

q: Can you look up the measured TGI of "CC(C)(C)NC(NC(C)(C)C)=C(C(Cl)=C(Cl)Cl)[N+](=O)[O-]" for me?
a: > 100 µM

q: # get_value(readout='TGI', item= CC1(C)OCC2OC3([C@H](O)CCO)OC(C)(C)OC3C2O1 (stereo not given in full) )
a: > 100 µM

q: What does the record list as TGI for Cc1ccc(S(=O)(=O)N2CCC3(C(/C=C/c4ccccc4)=Nc4ccccc43)C2c2ccccc2)cc1 (stereo not given) ?
a: > 100 µM

q: Any idea what TGI was measured for COC(=O)C(NC(=O)CNC(=O)CSc1nnc(COc2ccc(Cl)cc2)n1-c1ccccc1)C(C)C (stereo not given) ?
a: 46.7 µM

====

# System: HT29 colon
# Assay method text: NCI tumour cell line growth inhibition, 48 h
Measured attribute: TGI

Solved entries:
Cc1ccc(S(=O)(=O)N2CCC3(C(/C=C/c4ccccc4)=Nc4ccccc43)C2c2ccccc2)cc1 (centres undefined) = > 100 µM
O=C1CC(Br)c2c(Cl)sc(Cl)c21 (centres undefined) = 41.7 µM
Cc1cccc(-c2cc(=O)c3ccc(C)nc3[nH]2)c1 = 1.82 µM
O=C1Oc2ccccc2C(=O)/C1=C/N1C(=O)/C(=C/c2ccc([N+](=O)[O-])cc2)SC1=S = > 100 µM
CC(C)(C)OC(=O)C1=C(C(=O)OC(C)(C)C)SC2(S1)C(C(=O)OC(C)(C)C)=C(C(=O)OC(C)(C)C)Sc1c2ssc1=O = > 100 µM

q: Give recorded TGI with HT29 colon for the following compound: "COc1cc2c3c(n(CCCN4CCN(C)CC4)c(=O)c2cc1OC)-c1cc2c(cc1C3=O)OCO2"
a: > 100 µM

q: # query: TGI | item "COc1nn(Cc2ccccc2F)c2ccc([N+](=O)[O-])cc12" | system: HT29 colon
a: > 100 µM

q: Query for HT29 colon: what TGI does the record show for "O=C(CC/C(C/C(=N/O)c1ccc(F)cc1)=N/O)N(Cc1ccccc1)Cc1ccccc1" ?
a: > 100 µM

q: Kindly state the measured TGI obtained for "COC(=O)[C@@H]1c2cc3c(c(O)c2[C@@H](OC)C[C@@]1(C)O)C(=O)c1c(O)cc2c(c1C3=O)OC1O[C@@]2(C)[C@H](O)[C@@H](N(C)C)[C@@H]1O" with HT29 colon.
a: 2 µM

====

# Test system: HOP-92 NSCLC
# Assay method text: NCI tumour cell line growth inhibition, 48 h
Measured attribute: TGI (µM)
Form entry: value (µM) — number only.

# count of solved cases: 5
O=C1CC(Br)c2c(Cl)sc(Cl)c21 (stereo unspecified) = 29.6
COc1ccc2nc(NCCCNCCO)c3sc4ccc(F)cc4c(=O)c3c2c1 = 2.45
Cn1c(-c2csc(-c3ccc(Cl)cc3)n2)n[nH]c1=S = 27.1
NC(=O)c1[nH]nc(C2OC(CO)C(O)C2O)c1O (stereo unspecified) = 279
FC(F)(F)c1ccc2c(c1)nc(Cc1ccccc1)n2C[C@@H]1CCCN2CCCCC12 (stereo partly specified) = 27.2

q: So what's the measured TGI for this one? "COC(=O)c1c2c(c(C)[n+]([O-])c1C)C(=O)C=C(NCc1cccc(OC)c1)C2=O"
a: 4.7

q: I am curious: what TGI value has been reported for "CN(C)c1ccc(/C=C/c2sc3ccc4ccccc4c3[n+]2C)cc1" ?
a: 2.84

q: Can you look up the measured TGI of CC(=O)OCC1OC(OC2CC3C(C)(C)C(OC(C)=O)CC[C@]3(C)C3CCC45CC4(CC[C@H]5C(C)CC(O)C4OC4(C)C)[C@]23C)C(O)C(O)C1O (stereo partly specified) for me?
a: 6.33

q: Fill blank: measured TGI of the compound "Cc1cc2c(cc1O)CC[C@@H]1[C@@H]2CC[C@]2(C)[C@@H](O)CC[C@@H]12" is ____.
a: 30.4

q: Entry under review: CC(CN)[C@@H]1CC[C@]2(CO)CC[C@]3(C)[C@H](CC[C@@H]4[C@@]5(C)CCC(NCCO)C(C)(C)[C@@H]5CC[C@]43C)[C@@H]12 (stereo partly specified) . Reported TGI?
a: 2.94

q: I have this compound here, "COC(=O)c1ccccc1NC(=O)C(=O)CC(=O)c1ccccc1NC1=CC(=O)C(=O)c2ccccc21" , and I need its recorded TGI.
a: 32.5

q: Dear colleague, I am looking for the recorded TGI of the following compound: "c1ccc2c(c1)CCc1c-2n(CCN2CCCCC2)c2ccccc12"
a: 35

====

Reported TGI values for the following compounds.
# Tested on: SK-MEL-5 melanoma
# Assay method text: NCI tumour cell line growth inhibition, 48 h
Write the value in µM as a bare number.

C[C@@]12CC[C@H]3[C@@H]4CCC(=O)N[C@@]4(C)CC[C@@H]3[C@@]1(C)CC[C@H](OC(=O)Cc1ccc(N(CCCl)CCCl)cc1)C2 = 27.1
COc1cccc(/C=C/C(=O)c2ccc(Cl)cc2Cl)c1OC = 28.1
Cc1cc(O)c2c(c1)C(=O)c1cc(O)cc(O)c1C2=O = 24.4

q: # lookup: TGI of "CCOC(=O)c1c(C)n(Cc2ccccc2)c2c1cc(O)c1[nH]c3c(c12)CCCC3"
a: 15

q: Recorded TGI for "COC(=O)c1c2c(c(C)[n+]([O-])c1C)C(=O)C=C(NCc1cccc(OC)c1)C2=O" , please?
a: 0.334

q: What value of measured TGI is listed for "CC(=O)Oc1ccn2nc(C)c(Br)c2c1Br" ?
a: 31.7

q: Which measured TGI value corresponds to "Clc1ccc(OCc2nnc3sc(-c4ccc(-c5ccc(Cl)cc5Cl)o4)nn23)c(Cl)c1" ?
a: 44.4

====

# System: HOP-62 NSCLC
# Assay method text: NCI tumour cell line growth inhibition, 48 h
Listing: log10 TGI of selected compounds
The common logarithm of TGI in µM is what is listed.

Solved cases below.
C#CCN1CCN(C(=S)N/N=C(\C)c2ccccn2)CC1 = 0.77
Cc1cc2c(cc1O)CC[C@@H]1[C@@H]2CC[C@]2(C)[C@@H](O)CC[C@@H]12 = 1.40
COc1cc(NN=C(c2ccc(O)cc2)c2ccc(O)cc2)c([N+](=O)[O-])cc1[N+](=O)[O-] = 1.31

q: # value lookup — system HOP-62 NSCLC, readout log10 TGI, item COC(=O)C(NC(=O)CNC(=O)CSc1nnc(COc2ccc(Cl)cc2)n1-c1ccccc1)C(C)C (centres undefined)
a: 1.96

q: For the record "COC(=O)[C@@H]1c2cc3c(c(O)c2[C@@H](OC)C[C@@]1(C)O)C(=O)c1c(O)cc2c(c1C3=O)OC1O[C@@]2(C)[C@H](O)[C@@H](N(C)C)[C@@H]1O" , what value of log10 TGI is listed for HOP-62 NSCLC?
a: 0.03

q: Provide the documented log10 TGI with HOP-62 NSCLC as the system for "CC[C@@]1(O)C(=O)OCc2c1cc1n(c2=O)Cc2cc3cc(OC)ccc3nc2-1"
a: -0.02

====

# Tested on: SF-295 CNS
# Assay method text: NCI tumour cell line growth inhibition, 48 h
Measured attribute: TGI

Recorded TGI, per entry:
COC(=O)C1=C(C(=O)OC)C23C=CC=CC24C(C(=O)OC)=C(C(=O)OC)C4C1C3 (stereo unspecified) = > 100 µM
O=C1CC(Br)c2c(Cl)sc(Cl)c21 (stereo unspecified) = 30.2 µM
CCOC(=O)CCC(NC(=O)c1ccc(CNc2nc3cc(N)cc(N)c3nc2-c2ccccc2)cc1)C(=O)OCC (stereo unspecified) = > 100 µM
CC[N+](CC)=c1ccc2nc3c(cc(NCc4ccccc4)c4ccccc43)oc-2c1 = 0.51 µM
Cn1cc2c(n1)c(N/N=C/c1ccccc1)nn1nnnc21 = > 100 µM

q: May I ask what TGI has been recorded for Oc1ccc2c(c1)OCC(O)(c1ccccc1O)C2 (stereo unspecified) ?
a: > 100 µM

q: Sample CC1=C(C(=O)OCCO[N+](=O)[O-])C(c2ccccc2C(F)(F)F)C(C(=O)OC(C)C)=C(C)N1 (stereo unspecified) — what was its TGI?
a: 26.9 µM

q: Entry "O=C(CSc1nnc(Cc2ccccc2)o1)Nc1ccc(Cl)cc1" has what TGI?
a: > 100 µM

q: For the molecule "COc1ccc(C(=O)N2CCN(c3ccc4c(c3)OCC(=O)N4)CC2)cc1" , what TGI is on record?
a: > 100 µM

q: Entry under review: "OCCCSc1ccccc1SCCCO" . Reported TGI?
a: > 100 µM

q: Would you mind telling me what TGI value was observed for "O=c1ccc2ccccc2o1" ?
a: > 100 µM

Where these numbers come from: PubChem BioAssay (NCI)
